Origin of values: ChEMBL document CHEMBL4196192

# System: Plasmodium falciparum
# test_method_notes: Growth inhibition of Plasmodium falciparum 3D7 asynchronous cultures by PicoGreen dye based assay
# Type: functional, organism-based
The molecules listed here are annotated with their pIC50.
Keep it numeric: pIC50 is minus log10 of the concentration in mol/L.

# count of solved cases: 6
| molecule | obs_value |
| --- | --- |
| CC(=O)N(C/C=C/P(=O)(O)O)OC(C)c1ccccc1 (stereo not drawn) | 5.92 |
| O=C(N(O)C/C=C/P(=O)(O)O)C(F)(F)F | 3.95 |
| O=CN(O)CCCP(=O)(O)O [FOSMIDOMYCIN SODIUM] | 5.96 |
| CC(=O)N(C/C=C/P(=O)(O)O)OCc1ccc2ccccc2c1 | 4.58 |
| CC(=O)N(C/C=C/P(=O)(OCOC(=O)C(C)(C)C)OCOC(=O)C(C)(C)C)OCc1ccc(C(C)C)cc1 | 4.26 |
| COC(=O)N(O)C/C=C/P(=O)(OCOC(=O)C(C)(C)C)OCOC(=O)C(C)(C)C | 4.63 |

Input: Which pIC50 value is on record for CC(=O)N(C/C=C/P(=O)(O)O)OCc1ccc(C(C)C)cc1 ?
Output: 5.96

Input: Which pIC50 value is on record for CC(C)(C)C(=O)OCOP(=O)(/C=C/CN(O)C=O)OCOC(=O)C(C)(C)C ?
Output: 7.89
